- ASSAY OVERVIEW: HUVEC growth inhibition – cell-based, human, primary screen (AID 575);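 note: 100% = median of untreated cell wells with 0.1% DMSO on each plate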
- CONDITION NOTES: HUVEC proliferation, CellTiter-Glo luminescence, 72 h; at 10 µM; active compounds read low
PARAMETER: viability (%)
Lab book: enter the figure in %, no units written.

Please look up its viability: `CCOc1ccccc1C(=O)Nc1cc(=O)n(C)c(=O)n1C` 86.8

Recorded viability of COc1ccc(C(c2sc3nc(C)nn3c2O)N2CCCCC2)cc1 (stereo unspecified) , please. 111

// lookup viability for CCOCCCNC(=O)C(NC(=O)c1ccccn1)c1ccc(C)cc1 (stereo unspecified) 104

Entry `CCn1cc(C(=O)NCc2ccccc2OC)c(=O)c2cc(S(=O)(=O)N(C)C)ccc21` : reported viability = ? 78.3

Query (molecule): `CCCCS(=O)(=O)NC1=NCN(CCOC(=O)c2ccccc2)CN1` ; field requested: viability 104

Data request, read-out viability, for CC1CCc2nn(CC(=O)Nc3ccc(F)cc3F)cc2C1 (stereo unspecified) 100
